TEST NAME: Brain and plasma concentrations in mice after intraperitoneal administration (LC-MS-MS), non-compartmental analysis
Format: in vivo
ASSAY SETUP: male, Swiss-Webster (Crl:CFW(SW)), mouse, brain/plasma (unbound), ip; supplement, 10 mg/kg i.p.; read-out: Kp,uu,brain (AUC0–∞,brain,u / AUC0–∞,p,u)
Kindly state Kp uu for each of the entries shown.

Q: Which value of Kp uu has been reported for CC(C)[C@@H](CN1CC[C@@](C)(c2cccc(O)c2)[C@@H](C)C1)NC(=O)[C@H]1Cc2ccc(O)cc2CN1 in the records?
A: < 1.42

Q: Continue with Oc1ccc2c3c1O[C@H]1c4[nH]c5c(c4C[C@@]4(O)[C@@H](C2)N(CC2CC2)CC[C@]314)C[C@@]1(O)[C@H]2Cc3ccc(O)c4c3[C@@]1(CCN2CC1CC1)[C@H]5O4
A: < 0.00725
